molecular target: UniProt Q9UBL9; assay: Plate-based aequorin luminescence assay of P2X2 expressed in yeast; details: dose-response, area under luminescence curve
Sequence (Q9UBL9 whole entry): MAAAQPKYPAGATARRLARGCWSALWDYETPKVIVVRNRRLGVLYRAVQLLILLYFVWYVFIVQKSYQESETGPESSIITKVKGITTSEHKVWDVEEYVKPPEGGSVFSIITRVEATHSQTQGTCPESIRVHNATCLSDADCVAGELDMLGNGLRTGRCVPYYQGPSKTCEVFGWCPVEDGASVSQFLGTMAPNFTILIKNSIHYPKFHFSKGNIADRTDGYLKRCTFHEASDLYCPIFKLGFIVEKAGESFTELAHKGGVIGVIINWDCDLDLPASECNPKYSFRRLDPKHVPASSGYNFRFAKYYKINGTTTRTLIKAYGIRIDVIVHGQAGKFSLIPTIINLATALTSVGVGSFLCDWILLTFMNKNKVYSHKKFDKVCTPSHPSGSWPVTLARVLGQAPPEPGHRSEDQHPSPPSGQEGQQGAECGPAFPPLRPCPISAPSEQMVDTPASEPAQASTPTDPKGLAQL
pEC50: −log10 of the molar value.

{"molecule": "Nc1nc(Cl)nc2c1ncn2[C@@H]1O[C@H](COP(=O)(O)OP(=O)(O)OP(=O)(O)O)[C@@H](O)[C@H]1O [2-Chloro ATP, 2-Chloro-Adenosinetriphosphate]", "pEC50": 4.57}
{"molecule": "Nc1ncnc2c1ncn2[C@@H]1O[C@H](COP(=O)(O)OP(=O)(O)OP(=O)(O)O)[C@@H](O)[C@H]1O", "pEC50": 5.17}
